Exercise: state measured growth for each of the molecules provided.
- Tested on: IGROV1 ovarian
- Test method notes: NCI-60 one-dose screen, 48 h (100 = growth as untreated, 0 = no growth, -100 = all killed)
- Recorded conditions: 10 µM unless noted
Compounds without any hit were thinned out: in the full panel of roughly 83,000, 20% have a hit.
Numbers only, in %.

For orientation, consider the following solved cases.
{"Molecule": "C[C@@H]1CC[C@H]2[C@@H](C)C(O)O[C@@H]3O[C@]4(C)CC[C@@H]1[C@]32OO4 (stereo partly drawn)", "growth / %": 38.9}
{"Molecule": "CCCOc1ccc2c(c1)CC[C@@H]1[C@@H]2CC[C@@]2(C)[C@H]1CC[C@]2(C)O", "growth / %": 118}
{"Molecule": "O=C(Nc1nc2ccccc2s1)c1cc(-c2ccc(F)cc2)n2nc(-c3ccccc3)cc2n1", "growth / %": 78}
{"Molecule": "N#Cc1c2ccccc2c2n1-c1ccccc1OC(c1ccccc1)C2=O (stereo not drawn)", "growth / %": 43}
{"Molecule": "CCN1C(=O)c2ccc3c4c(ccc(c24)C1=O)C(=O)N(CCCNCc1ccccc1OC)C3=O", "growth / %": -63}
{"Molecule": "COc1cc([C@@H]2c3cc4c(cc3C(O[C@@H]3O[C@@H]5CO[C@@H](c6cccs6)OC5[C@H](O)[C@H]3O)C3COC(=O)[C@@H]32)OCO4)cc(OC)c1O (stereo partly drawn)", "growth / %": -5.65}
{"Molecule": "Cc1[nH]n(C(N)=S)c(=O)c1N=Nc1ccc(F)c(Cl)c1", "growth / %": 102}

Please look at the following molecule next.
In: Recorded growth of `COc1ccc(-c2c(-c3cc(OC)c(OC)c(OC)c3)noc2N)cc1` , please.
Out: 22.4

###

- Tested on: DU-145 prostate
- Test method notes: NCI-60 one-dose screen, 48 h
- Recorded conditions: 10 µM unless noted
This is part of a sample that, as a whole, favours compounds with a hit. Of some 83,000 tested, about 20% had one in any assay. Activity calls are given as the source filed them. Rule for the calls: active = growth percent below 10; inactive = the rest.
In this exercise, the only acceptable responses are y = active, n = inactive

{"Compound": "O=[N+]([O-])c1ccc(N/N=C\\c2ccccc2[N+](=O)[O-])nc1", "Cat": "n"}

In: Query: recorded result category for `CC(=O)c1cc(C(=O)c2ccc3c(c2)Sc2ccccc2N3)c2c(C)cc(C)cn12` in this test
Out: y

In: Query: recorded result category for CC[N+](C)(CC)CCCC(C)Nc1ccnc2cc(Cl)ccc12 (configuration not stated) in this test
Out: n

In: Query: recorded result category for `O=[P@@]1(c2ccccc2)O[C@H](COCc2ccccc2)[C@@H](OCc2ccccc2)[C@H](OCc2ccccc2)[C@H]1NCc1ccccc1` in this test
Out: n

###

- System: IGROV1 ovarian
- Test method notes: NCI-60 one-dose screen, 48 h
- Recorded conditions: 10 µM unless noted
About 83,000 compounds went through this panel and 20% of them were active in at least one assay; those are over-represented in the sample as a whole. Active and inactive are the calls of the source. How the source made its calls: active means growth percent below 10; inactive means the rest.
In this exercise, the only acceptable responses are 1 (active), 0 (inactive)

Sample answers from the record:
{"Compound": "NNC(=O)C1CC2c3ccccc3C1c1ccccc12 (configuration not stated)", "Cat": 0}
{"Compound": "COc1ccc(-c2cnnn2-c2cc(OC)c3c(c2)OCO3)cc1", "Cat": 0}
{"Compound": "COc1cc(/C=C/C(=O)Nc2ccc3c(c2)/C(=C\\c2cccn2C)C(=O)N3)cc(OC)c1OC", "Cat": 0}
{"Compound": "CC(C)C(=O)Cc1cnccn1", "Cat": 0}
{"Compound": "CC(=O)c1cc(C(=O)c2ccc3c(c2)Sc2ccccc2N3)c2c(C)cc(C)cn12", "Cat": 0}

In: Query: recorded result category for COc1ccc(C2=NN(C(=O)c3cc(OC)c(OC)c(OC)c3)C(c3ccc(C#N)cc3)C2)cc1OC (configuration not stated) in this test
Out: 0

In: Query: recorded result category for `COc1cc2c(cc1OCCCCCn1c(-c3ccc(OCc4ccccc4)cc3)nc3cc(N4CCOCC4)ccc31)N=C[C@@H]1CCCN1C2=O` in this test
Out: 1

Data origin, for the record: PubChem BioAssay (NCI)
